Hi there, I'd appreciate the recorded Population Hoechst High Intensity Objects (%) for every entry that follows.
System: Fibroblast
experimentNotes: Multiplex assay against human fibroblast
Format: toxicity, cell-based
recordedConditions: 12 h, 1 µM, compound concentration 1 uM, replicate 1
One number for each entry, in %.

Example cases with answers are listed next.
I am curious: what Population Hoechst High Intensity Objects (%) value has been reported for "Cc1csc2c(N[C@@H](C)CN3CCN(S(=O)(=O)c4ccc(Cl)c(Cl)c4)CC3)ncnc12" ?
5

I am curious: what Population Hoechst High Intensity Objects (%) value has been reported for Cc1c(-c2ccc(O)cc2)n(Cc2ccc(OCCN3CCCCCC3)cc2)c2ccc(O)cc12 [BAZEDOXIFENE] ?
13

I am curious: what Population Hoechst High Intensity Objects (%) value has been reported for "Cn1cc(-c2[nH]c3cc(NC(=O)[C@H](N)C4CCCCC4)cc4c3c2C=NNC4=O)cn1" ?
8

I am curious: what Population Hoechst High Intensity Objects (%) value has been reported for COc1cccc([C@@H](C)NCCCc2ccccc2Cl)c1.Cl [TECALCET HYDROCHLORIDE] ?
9

I am curious: what Population Hoechst High Intensity Objects (%) value has been reported for "COc1cc(-n2cnc3cc(-c4ccc(Cl)cc4)sc3c2=O)ccc1OCCN1CCCC1" ?
13

I am curious: what Population Hoechst High Intensity Objects (%) value has been reported for Cl.N#Cc1ccc2[nH]cc(CCCCN3CCN(c4ccc5oc(C(N)=O)cc5c4)CC3)c2c1 [VILAZODONE HYDROCHLORIDE] ?
19

Could you tell me Population Hoechst High Intensity Objects (%) for each of these compounds? They are listed below.
1. CN(C)C(=O)N[C@H]1CC[C@H](CCN2CCN(c3cccc(Cl)c3Cl)CC2)CC1.Cl [CARIPRAZINE HYDROCHLORIDE]
2. Cc1nc(-c2cn3c(n2)-c2ccc(-c4cnn(C(C)(C)C(N)=O)c4)cc2OCC3)n(C(C)C)n1 [TASELISIB]

6
12
